Here the recorded IC50 is given for each entry.
Biological target: Sentrin-specific protease 7 (Homo sapiens, UniProt Q9BQF6);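 further: Luminescence-based dose-response confirmation of ultra-high-throughput screening hits, measuring inhibition of SENP7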
Sequence (Q9BQF6 whole entry): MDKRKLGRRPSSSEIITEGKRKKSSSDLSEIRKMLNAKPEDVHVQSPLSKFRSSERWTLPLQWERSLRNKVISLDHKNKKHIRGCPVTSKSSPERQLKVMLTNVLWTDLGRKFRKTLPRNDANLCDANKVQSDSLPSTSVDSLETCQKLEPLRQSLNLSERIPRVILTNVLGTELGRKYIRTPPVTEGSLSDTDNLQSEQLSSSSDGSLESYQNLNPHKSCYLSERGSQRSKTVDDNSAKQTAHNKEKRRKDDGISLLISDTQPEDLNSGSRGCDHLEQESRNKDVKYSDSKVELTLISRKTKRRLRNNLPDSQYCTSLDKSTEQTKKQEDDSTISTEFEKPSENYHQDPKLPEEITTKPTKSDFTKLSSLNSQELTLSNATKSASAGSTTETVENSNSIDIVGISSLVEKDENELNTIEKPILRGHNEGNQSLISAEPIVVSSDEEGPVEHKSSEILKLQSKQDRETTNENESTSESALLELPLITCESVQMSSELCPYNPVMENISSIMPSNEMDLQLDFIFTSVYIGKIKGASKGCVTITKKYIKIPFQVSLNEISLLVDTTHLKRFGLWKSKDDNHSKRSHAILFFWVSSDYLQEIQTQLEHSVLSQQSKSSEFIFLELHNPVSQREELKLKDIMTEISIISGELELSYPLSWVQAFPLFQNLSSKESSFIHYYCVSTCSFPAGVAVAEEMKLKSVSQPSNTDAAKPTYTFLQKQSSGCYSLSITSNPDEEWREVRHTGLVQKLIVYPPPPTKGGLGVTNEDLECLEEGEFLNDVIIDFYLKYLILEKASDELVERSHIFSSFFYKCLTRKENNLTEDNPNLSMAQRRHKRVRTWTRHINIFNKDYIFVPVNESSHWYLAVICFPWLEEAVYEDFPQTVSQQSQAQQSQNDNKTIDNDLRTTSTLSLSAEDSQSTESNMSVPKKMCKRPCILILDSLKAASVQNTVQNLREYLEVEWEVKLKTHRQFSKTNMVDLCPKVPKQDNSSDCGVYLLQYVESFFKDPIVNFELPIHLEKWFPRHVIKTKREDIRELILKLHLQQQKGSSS
Format: functional
Activity calls are given as the source filed them.
attributeMeasured: IC50

INSERT INTO measurements (molecule, result) VALUES
  ('O=C(c1ccccc1)c1ccc(Cn2cc(-c3ccccc3)nn2)cc1', '5.67 µM (active)'),
  ('COC(=O)c1ccccc1NC1=C/C(=N\S(=O)(=O)c2cccs2)c2ccccc2C1=O', '32.3 µM (active)'),
  ('CCCCCc1ccc(-c2ccc(/C=C/C(=O)O)cc2)nc1', '6.37 µM (active)'),
  ('Cc1ccccc1NS(=O)(=O)c1cccc(C(=O)Nc2cccc(C(=O)O)c2)c1', '9.34 µM (active)'),
  ('Cc1cc(C)c[n+](C2=C([N-]S(=O)(=O)c3cccs3)C(=O)c3ccccc3C2=O)c1', '41.2 µM (active)'),
  ('O=C(OCC(=O)N1CCN(c2ccccc2)CC1)c1ccc([N+](=O)[O-])s1', '13.8 µM (active)'),
  ('C=C(C)C(O)CC/C(C)=C/Cc1c(O)ccc(C(=O)/C=C/c2ccc(O)cc2)c1O (configuration not stated) [XANTHOANGELOL B]', '3.39 µM (active)');
